src = patent US20210388082A1

Molecular target: T1, recombinant human CD79b extracellular domain protein (human, UniProt P40259 29-159)
T1 construct: Bought protein; also called CD79b ECD; human CD79b-ECD
T1 sequence: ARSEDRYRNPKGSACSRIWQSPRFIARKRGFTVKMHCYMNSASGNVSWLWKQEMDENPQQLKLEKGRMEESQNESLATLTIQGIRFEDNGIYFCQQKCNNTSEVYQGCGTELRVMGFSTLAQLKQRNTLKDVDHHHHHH
Assay: SPR (Biacore T200), antibody on CM5 chip, CD79b ECD as analyte, 25 C
Recorded koff for the following binders
experimentalReadout: koff (s⁻¹)

binder="Humanized antibody AS11254 (antibody, human IgG1, kappa, V domains shown, Humanized IgG1 / kappa) VH: QVQLVQSGAEVKKPGASVKVSCKTSGNTFTSYGINWVKQAPGQGLEWMGEIFPRSGNIYYNEKFKGRVTITADKSTSTAYMELSSLRSEDTAVYYCAKGGTGDFDYWGQGTLVTVSS VL: DVVMTQSPLSLPVTLGQPASISCRSSQNIVHSDGNTYLEWYQQRPGQSPRLLIYKVSFRLSGVPDRFSGSGSGTDFTLKISRVEAEDVGVYYCFQGSHVPWTFGGGTKVEIKR" experimentalreadout=koff unitssymbol=s⁻¹ reportedvalue=2.87e-05
binder="Humanized antibody AS11164 (antibody, human IgG1, kappa, V domains shown, Humanized IgG1 / kappa) VH: QVQLVQSGAEVKKPGSSVKVSCKTSGNTFTSYGINWVRQAPGQGLEWMGEIFPRSGNIYYNEKFKGKVTITADKSTSTAYMELSSLRSEDTAVYYCAKGGTGDFDYWGQGTLVTVSS VL: DVLMTQSPLSLPVTLGQPASISCRSSQNIVHSDGNTYLEWYQQRPGQSPKLLIYKVSFRLSGVPDRFSGSGSGTDFTLKISRVEAEDVGVYYCFQGSHVPWTFGGGTKVEIKR" experimentalreadout=koff unitssymbol=s⁻¹ reportedvalue=2.44e-05
binder="Humanized antibody AS11161 (antibody, human IgG1, kappa, V domains shown, Humanized IgG1 / kappa) VH: QVQLVQSGAEVKKPGSSVKVSCKTSGNTFTSYGINWVRQAPGQGLEWMGEIFPRSGNIYYNEKFKGKVTITADKSTSTAYMELSSLRSEDTAVYYCAKGGTGDFDYWGQGTLVTVSS VL: DVVMTQSPLSLPVTLGQPASISCRSSQNIVHSDGNTYLEWYQQRPGQSPRLLIYKVSFRLSGVPDRFSGSGSGTDFTLKISRVEAEDVGVYYCFQGSHVPWTFGGGTKVEIKR" experimentalreadout=koff unitssymbol=s⁻¹ reportedvalue=2.84e-05
binder="recombinant human-mouse chimeric antibody 104E1 (antibody, V domains shown, also called chimeric 104E1) VH: QVQLQQSGSELARPGASVKLSCKTSGNTFTSYGINWVKQRTGQGLEWIGEIFPRSGNIYYNEKFKGKATLTADKSSSTAYMELRSLTSEDSAVYFCAKGGTGDFDYWGQGTTLTVSS VL: DVLMTQTPLSLPVSLGDQASISCRSSQNIVHSDGNTYLEWYLQKPGQSPKLLIYKVSFRLSGVPDRFSGSGSGTDFTLKIRRVEAEDLGTYYCFQGSHVPWTFGGGTKLEIK" experimentalreadout=koff unitssymbol=s⁻¹ reportedvalue=5.52e-05
